Reported EC50 is given for each of the following compounds.
Target: full-length HAQ STING (Homo sapiens, UniProt Q86WV6, G230A/H232R/R293Q/R71H)
Construct: AviTag (after GG linker) (C); HRV3C cleavage site (after GS linker) (C); HIS8 (C); made in house; host or cells: Trichoplusia ni (Hi-Five) insect cells infected with baculovirus (virus generated and amplified in Sf21 cells); used as a washed membrane preparation
Sequence (Q86WV6 with tags, fused parts or gaps R71H/G230A/H232R/R293Q): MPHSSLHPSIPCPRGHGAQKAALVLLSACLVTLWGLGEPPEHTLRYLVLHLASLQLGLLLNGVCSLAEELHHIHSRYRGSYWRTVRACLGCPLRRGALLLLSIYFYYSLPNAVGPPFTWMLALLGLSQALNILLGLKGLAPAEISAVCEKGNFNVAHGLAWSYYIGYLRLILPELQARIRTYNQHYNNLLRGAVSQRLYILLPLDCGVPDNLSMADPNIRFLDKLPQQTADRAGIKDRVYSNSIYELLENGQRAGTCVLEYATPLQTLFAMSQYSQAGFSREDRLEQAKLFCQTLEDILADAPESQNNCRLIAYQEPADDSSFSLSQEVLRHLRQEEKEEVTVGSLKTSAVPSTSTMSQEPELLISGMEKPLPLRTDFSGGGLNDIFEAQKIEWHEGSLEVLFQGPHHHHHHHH
Assay: 3H-cGAMP filtration binding assay (HAQ STING)
Details: competition with tritiated cGAMP, HAQ STING membrane
Unit nM implied. Number only.

• COc1cc2sc(C(=O)C[C@H](C)C(=O)O)cc2c(F)c1CCCOc1c(OC)cc2sc(CCC(C)(C)C(=O)O)cc2c1F = 21
• COc1cc2sc(CC[C@H](C)C(=O)O)cc2c(F)c1OCCCCOc1c(OC)cc2sc(C(=O)C[C@H](C)C(=O)O)cc2c1F = 263
• COc1cc2sc(C(=O)C[C@H](C)C(=O)O)cc2cc1OCCCOc1ccc2cc(C(=O)CCC(=O)O)sc2c1 = 49

Return reported EC50; argument: COc1cc2sc(C(=O)CCC(=O)O)cc2nc1CCCOc1c(OC)cc2sc(C(=O)C[C@H](C)C(=O)O)cc2c1F
1

---

Target: full-length WT STING (Homo sapiens, UniProt Q86WV6, H232R)
Construct: AviTag (after gg linker) (C); HRV3C cleavage site (after gs linker) (C); HIS8 (C); made in house; host or cells: Trichoplusia ni (Hi-Five) insect cells infected with baculovirus (virus generated and amplified in Sf21 cells); used as a washed membrane preparation
Sequence (Q86WV6 with tags, fused parts or gaps H232R): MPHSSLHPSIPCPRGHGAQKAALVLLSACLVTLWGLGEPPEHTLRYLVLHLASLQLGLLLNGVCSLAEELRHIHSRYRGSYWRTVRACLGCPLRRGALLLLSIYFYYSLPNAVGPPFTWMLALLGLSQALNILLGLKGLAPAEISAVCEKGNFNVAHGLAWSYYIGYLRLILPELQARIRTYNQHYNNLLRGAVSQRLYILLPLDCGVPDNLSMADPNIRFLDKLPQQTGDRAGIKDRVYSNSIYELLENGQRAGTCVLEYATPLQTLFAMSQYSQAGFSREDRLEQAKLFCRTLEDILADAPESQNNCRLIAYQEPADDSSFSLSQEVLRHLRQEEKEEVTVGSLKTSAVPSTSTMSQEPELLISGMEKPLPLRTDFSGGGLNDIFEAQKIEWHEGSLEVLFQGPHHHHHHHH
Test: 3H-cGAMP filtration binding assay (WT STING)
Settings: at 20,000 nM compound
Measured Property: inhibition at 20 µM
# number then unit; no other words

- COc1cc2cc(C(=O)C[C@H](C)C(=O)O)sc2cc1OCCCCCCOc1cc2sc(C(=O)C[C@H](C)C(=O)O)cc2cc1OC: 11%
- COc1cc2sc(C(=O)CCC#N)cc2cc1CCCc1cc2cc(C(=O)CCC#N)sc2cc1OC: 46%
- COC(=O)[C@@H](C)CC(=O)c1cc2cc(OCCCOc3cc4cc(C(=O)C[C@H](C)C(=O)OC)sc4cc3OC)c(OC)cc2s1: 34%
- COc1cc2sc(C(=O)CCC#N)cc2cc1CCCc1cc2cc(C(=O)CCC(=O)O)sc2cc1OC: 39%

I have this compound here, COc1cc2sc(C(=O)C[C@H](C)C(=O)O)cc2cc1OCCCCCCOc1cc2cc(C(=O)C[C@H](C)C(=O)O)sc2cc1OC , and I need its recorded inhibition at 20 µM.
15%

# inhibition at 20 µM lookup, item COc1cc2sc(C(=O)CCC(=O)O)cc2c(F)c1OCCCCCOc1c(OC)cc2sc(C(=O)[C@@H]3CC[C@H]3C(=O)O)cc2c1F (stereo in doubt)
32%

---

Measured log10 EC50 of individual entries
Molecular target: full-length WT STING (Homo sapiens, UniProt Q86WV6, H232R)
Construct: AviTag (after gg linker) (C); HRV3C cleavage site (after gs linker) (C); HIS8 (C); made in house; host or cells: Trichoplusia ni (Hi-Five) insect cells infected with baculovirus (virus generated and amplified in Sf21 cells); used as a washed membrane preparation
Assay: 3H-cGAMP filtration binding assay (WT STING)
Conditions: competition with tritiated cGAMP, WT STING membrane
Values are log10 of EC50 in nM.

• COc1cc2sc(C(=O)C[C@H](C)C(=O)O)cc2cc1CCCOc1c(OC)cc2sc(C(=O)C[C@@H](C)C(=O)O)cc2c1F = 1.59

Kindly consider the entry below.
Value lookup for log10 EC50; key = COc1cc2sc(C(=O)C[C@H](C)C(=O)O)cc2cc1OCCCCOc1cc2sc(C(=O)C[C@H](C)C(=O)O)cc2cc1OC
2.12

---

Target: full-length HAQ STING (Homo sapiens, UniProt Q86WV6, G230A/H232R/R293Q/R71H)
Construct: AviTag (after GG linker) (C); HRV3C cleavage site (after GS linker) (C); HIS8 (C); made in house; host or cells: Trichoplusia ni (Hi-Five) insect cells infected with baculovirus (virus generated and amplified in Sf21 cells); used as a washed membrane preparation
Assay: 3H-cGAMP filtration binding assay (HAQ STING)
Details: competition with tritiated cGAMP, HAQ STING membrane
Reported EC50 by item:
Only the number, expressed in nM, is required.

• COc1cc2cc(C(=O)C[C@H](C)C(=O)O)sc2cc1OCCCc1nc2c(o1)c(OC)cc1sc(C(=O)C[C@H](C)C(=O)O)cc12 = 86
• COc1cc2sc(C(=O)CCC(=O)O)cc2nc1OCCOc1c(OC)cc2sc(C(=O)CCC(=O)O)cc2c1F = 2

What value of measured EC50 is listed for COc1cc2sc(C(=O)C[C@H](C)C(=O)O)cc2c(Cl)c1OCCCOc1c(O)cc2sc(C(=O)C[C@H](C)C(=O)O)cc2c1Cl ?
4

Fill in the blank: the reported EC50 of COc1cc2sc(C(=O)[C@H]3C[C@@H]3C(=O)O)cc2cc1OCCCOc1cc2cc(C(=O)[C@@H]3C[C@H]3C(=O)O)sc2cc1OC is ____.
1300

# lookup: EC50 of COc1cc2sc(C(=O)CCC(=O)O)cc2cc1CCCOc1c(OC)cc2sc(C(=O)C[C@H](C)C(=O)O)cc2c1F
1

Could you tell me which EC50 is on file for COc1cc2sc(C(=O)C[C@H](C)C(=O)O)cc2c(F)c1OCCCOc1c(OC)cc2sc(C(=O)C[C@H](C)C(=O)O)cc2c1Br ?
1

---

Biological target: full-length HAQ STING (Homo sapiens, UniProt Q86WV6, G230A/H232R/R293Q/R71H)
Construct: AviTag (after GG linker) (C); HRV3C cleavage site (after GS linker) (C); HIS8 (C); made in house; host or cells: Trichoplusia ni (Hi-Five) insect cells infected with baculovirus (virus generated and amplified in Sf21 cells); used as a washed membrane preparation
Test: 3H-cGAMP filtration binding assay (HAQ STING)
Settings: competition with tritiated cGAMP, HAQ STING membrane
Friendly reminder: EC50 below 3 nM is Met, at or above is Not met.

Is it true that EC50 reported for COc1cc2sc(CCC(C)(C)C(=O)O)cc2c(F)c1OCCCOc1c(OC)cc2sc(C(=O)CC(C)(C)C(=O)O)cc2c1F is less than 3 nM?
Not met

EC50 strictly < 3 nM for this compound? COc1cc2sc(C(=O)C[C@H](C)C(=O)O)cc2cc1OCCOc1ccc2cc(C(=O)CCC(=O)O)sc2c1
Not met

Take the compound COc1cc2sc(C(=O)CCC(=O)O)nc2cc1OCCc1nc2cc(C(=O)CCC(=O)O)sc2cc1OC and say whether its EC50 is less than 3 nM.
Not met

Strictly below 3 nM: is that where EC50 of COc1cc2sc(C(=O)C[C@H](C)C(=O)O)cc2cc1CCCCc1cc2cc(C(=O)C[C@H](C)C(=O)O)sc2cc1OC sits?
Not met

In the record for Cc1cc2sc(C(=O)CCC(=O)O)cc2cc1CCCc1cc2cc(C(=O)CCC(=O)O)sc2cc1C , is EC50 less than 3 nM?
Not met

Determine whether this compound shows EC50 lower than 3 nM (ties excluded): COc1cc2sc(C(=O)CCC(=O)O)cc2cc1OCCCc1nc2cc(C(=O)CCC(=O)O)sc2cc1OC
Not met

Hello, is EC50 of the following compound strictly smaller than 3 nM? COc1cc2sc(C(=O)C[C@H](C)C(=O)O)cc2cc1OCCCOc1c(OC)cc2sc(C(=O)CCC(=O)O)cc2c1F
Met

Problem: For the compound COc1cc2sc(C(=O)CCC(=O)O)cc2nc1CCCOc1c(OC)cc2sc(C(=O)CCC(=O)O)cc2c1F , is EC50 under 3 nM?
Met

Dear colleague, could you confirm whether EC50 of COc1cc2sc(C(=O)C[C@H](C)C(=O)O)cc2cc1OCCCOc1cc2cc(C(=O)C[C@H](C)C(=O)O)sc2cc1OC falls below 3 nM? Thanks.
Met

Lab log: compare recorded EC50 with 3 nM; is it strictly lower for COc1cc2sc(C(=O)C[C@H](C)C(=O)O)cc2cc1OCCCCCCOc1c(OC)cc2sc(C(=O)C[C@H](C)C(=O)O)cc2c1F ?
Not met

Dear reviewer, please state whether COc1cc2sc(CC[C@H](C)C(=O)O)cc2cc1OCCCOc1c(OC)cc2sc(C(=O)C[C@H](C)C(=O)O)cc2c1F has EC50 strictly beneath 3 nM.
Met

Determine if COc1cc2sc(C(=O)C[C@H](C)C(=O)O)cc2nc1OCCCOc1c(OC)cc2sc(C(=O)CCC(=O)O)cc2c1F shows EC50 strictly lower than 3 nM.
Met

Please check: EC50 for COc1cc2sc(C(=O)C[C@H](C)C(=O)O)cc2c(F)c1OCCOc1c(OC)cc2sc(C(=O)C[C@H](C)C(=O)O)cc2c1F , strictly under 3 nM or not?
Met

Is EC50 of COc1cc2sc(C(=O)C[C@H](C)C(=O)O)cc2c(F)c1OCCCOc1c(OC)cc2sc(C(=O)[C@@H]3CC[C@H]3C(=O)O)cc2c1F [Example 99] strictly below 3 nM?
Met

Where these numbers come from: patent US10793557B2
